System: HIV-1
Assay Method Text: Single-round infectious HIV-1 luciferase reporter virus infection of HeLa CD4 cells
Assay type: cell-based
Study Conditions: Human immunodeficiency virus 1, HeLa, 72 h
pEC50: −log10 of the molar value.
Measured Metric: pEC50

Structure Smiles String: O=C(C(=O)N1CCN(c2c(-c3cccs3)c(=O)c2=O)CC1)c1c[nH]c2cccc(F)c12
Experimental System: HIV-1
Result: 6.30 to 7.30
//
Structure Smiles String: O=C(C(=O)N1CCN(c2c(N3CCc4ccccc4C3)c(=O)c2=O)CC1)c1c[nH]c2cccc(F)c12
Experimental System: HIV-1
Result: < 5.30

Query: Can you look up the measured pEC50 of COc1ncc(OC)c2c(C(=O)C(=O)N3CCN(c4c(-c5ccccc5)c(=O)c4=O)CC3)c[nH]c12 for me?
Reply: 6.30 to 7.30

Query: Can you look up the measured pEC50 of O=C(C(=O)N1CCN(c2c(N3CCSCC3)c(=O)c2=O)CC1)c1c[nH]c2cccc(F)c12 for me?
Reply: < 5.30

Query: Can you look up the measured pEC50 of COc1ncc(OC)c2c(C(=O)C(=O)N3CCN(c4c(-c5cccs5)c(=O)c4=O)CC3)c[nH]c12 for me?
Reply: 6.30 to 7.30

Query: Can you look up the measured pEC50 of COc1cnc(-c2cnccn2)c2[nH]cc(C(=O)C(=O)N3CCN(c4c(-c5ccccc5)c(=O)c4=O)CC3)c12 for me?
Reply: 6.30 to 7.30

Query: Can you look up the measured pEC50 of O=C(C(=O)N1CCN(c2c(N3CCC4(CCCC4)CC3)c(=O)c2=O)CC1)c1c[nH]c2cccc(F)c12 for me?
Reply: < 5.30

Query: Can you look up the measured pEC50 of CN1CCN(c2c(N3CCN(C(=O)C(=O)c4c[nH]c5cccc(F)c45)CC3)c(=O)c2=O)CC1 for me?
Reply: < 5.30

Query: Can you look up the measured pEC50 of COc1ncc(OC)c2c(C(=O)C(=O)N3CCN(c4c(-c5ncco5)c(=O)c4=O)CC3)c[nH]c12 for me?
Reply: 5.30 to 6.30

This collection of values is drawn from patent US7501419B2.
